- ASSAYED_SYSTEM: MAPKAP-K2 (Homo sapiens, UniProt P49137)
- Sequence (P49137 whole entry): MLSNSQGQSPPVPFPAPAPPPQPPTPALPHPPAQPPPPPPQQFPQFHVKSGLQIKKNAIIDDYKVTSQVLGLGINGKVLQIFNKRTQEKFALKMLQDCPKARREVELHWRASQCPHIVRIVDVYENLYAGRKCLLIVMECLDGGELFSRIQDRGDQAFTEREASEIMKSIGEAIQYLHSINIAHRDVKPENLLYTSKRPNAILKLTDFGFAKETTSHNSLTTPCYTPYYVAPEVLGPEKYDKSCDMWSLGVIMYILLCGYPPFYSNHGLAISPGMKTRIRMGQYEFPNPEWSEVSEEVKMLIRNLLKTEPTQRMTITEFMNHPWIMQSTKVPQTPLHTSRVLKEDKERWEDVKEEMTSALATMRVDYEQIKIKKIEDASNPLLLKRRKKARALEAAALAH
- PROTOCOL_SUMMARY: MAPKAP-Kinase 2 Assay (33P-ATP peptide phosphorylation, filter plate)
- Type: biochemical
- Set-up: key: +: active; ++: more active; +++: very active
- PROTOCOL_CONDITIONS: assays conducted at typically 1-100 μM
READOUT_LABEL: MAPKAP-K2 activity

• Fc1ccc(Nc2cc(NC3CCC(NCCCc4ccccc4)CC3)nc3ccnn23)cc1Cl (stereo not shown) = ++
• N[C@H]1CC[C@H](Nc2cc(Nc3cccc(Cl)c3)n3nccc3n2)CC1 = +++
• NC1CCC(Nc2cc(Nc3ccc(OC(F)(F)F)cc3Cl)n3nccc3n2)CC1 (stereo not shown) = +++
• NC1CCC(Nc2cc(NCCOc3ccccc3)n3nccc3n2)CC1 (stereo not shown) = +
• N#Cc1cccc(Nc2cc(NC3CCC(N)CC3)nc3ccnn23)c1 (stereo not shown) = +++
• Fc1ccc(Nc2cc(NC3CCNC3)nc3ccnn23)cc1Cl (stereo not shown) = ++
• C#CCNc1cc(NC2CCC(N)CC2)nc2ccnn12 (stereo not shown) = +++
• N[C@H]1CC[C@H](Nc2cc(Nc3ccccc3)n3nccc3n2)CC1 = +++
• Cc1ccccc1Nc1cc(N[C@H]2CC[C@H](N)CC2)nc2ccnn12 = +++
• NC1CCC(Nc2cc(Nc3cccc(I)c3)n3nccc3n2)CC1 (stereo not shown) = +++
